System: HT29 colon
Method description: NCI-60 one-dose screen, 48 h
Applied conditions: 10 µM unless noted
Compounds without any hit were thinned out: in the full panel of roughly 83,000, 20% have a hit. Activity calls are given as the source filed them. How the source made its calls: active means growth percent below 10; inactive means the rest.
Give your call using only these classes: active, inactive

Data request: What call does the record list for `O=C1NC(=S)S/C1=C\c1cc(Br)ccc1O` ?
Data returned: inactive

Data request: What call does the record list for `CCCCCCCSc1ncnc2[nH]ncc12` ?
Data returned: inactive

Data request: What call does the record list for `O=C(Nc1ccccc1)c1cc(-n2cnc([N+](=O)[O-])c2)cc(-n2cnc([N+](=O)[O-])c2)n1` ?
Data returned: inactive

Data request: What call does the record list for `COc1cc(/C=C2\SC(N3CCCCC3)=NC2=O)ccc1OCCCCCCOc1ccc(/C=C2\SC(N3CCCCC3)=NC2=O)cc1OC` ?
Data returned: active

Data request: What call does the record list for `O=[N+]([O-])c1ccc2[nH]cc(-c3c4ccccc4cc4[nH]c5ccc([N+](=O)[O-])cc5c34)c2c1` ?
Data returned: inactive

Data request: What call does the record list for `CCOc1cc(/C=C/C(=O)C(C(=O)/C=C/c2ccc(OC(=O)CNc3nnc(C)s3)c(OCC)c2)C(=O)CNc2nnc(C)s2)ccc1OC(=O)CNc1nnc(C)s1` ?
Data returned: active

Data request: What call does the record list for `COC(=O)c1c(NC(=O)CSc2nnnn2-c2ccc(OC)cc2)sc(C)c1C` ?
Data returned: inactive

Data request: What call does the record list for `Cc1cc(C)c2c(N)c3cccc(C)c3nc2n1` ?
Data returned: active

Data request: What call does the record list for `CCn1cnc(C[C@H](NC(=O)[C@H](CCCCNC(=O)Nc2cc(C(F)(F)F)cc(C(F)(F)F)c2)NC(=O)Nc2cc(C(F)(F)F)cc(C(F)(F)F)c2)C(=O)OC)c1` ?
Data returned: active

Data request: What call does the record list for `N=C1c2nc3n(c2C(=O)c2nc4n(c21)CCCCC4)CCCCC3` ?
Data returned: inactive

Data request: What call does the record list for `Cc1ccc(-c2csc(N)n2)cc1` ?
Data returned: inactive

Data request: What call does the record list for `NC(=O)NC1(C(=O)O)CCCC1` ?
Data returned: inactive

Data request: What call does the record list for Clc1ccc2c(c1)C(Br)c1cc(Cl)cc(Cl)c1-2 (centres undefined) ?
Data returned: inactive

Data request: What call does the record list for `Cc1ccc2nc3c(n2c1)C(=O)C(=O)c1ccccc1-3` ?
Data returned: active

Data request: What call does the record list for Nc1nc(NC2CC2)c2ncn(C3C=CC(CO)C3)c2n1 (centres undefined) ?
Data returned: inactive

Data request: What call does the record list for `Cc1ccc(C(=O)Cc2ccccc2)c(O)c1` ?
Data returned: inactive

Data request: What call does the record list for `O=C1NC(=O)/C(=C\c2ccco2)S1` ?
Data returned: inactive

Data request: What call does the record list for `O[N+]1=CC=CCC1=S.On1ccccc1=S.[Zn]` ?
Data returned: active

Data request: What call does the record list for BrC1CC(Br)c2c1c1c(c3c2C(Br)CC3Br)C(Br)CC1Br (centres undefined) ?
Data returned: inactive

Data request: What call does the record list for `CC(=O)Nc1cc2c3c(cccc3c1)-c1ccccc1-2` ?
Data returned: inactive

Data request: What call does the record list for CCN1CC2=C(Nc3nc(SC)[nH]c(=O)c3C2c2cc(OC)c(OC)c(OC)c2)/C(=C/c2cc(OC)c(OC)c(OC)c2)C1 (centres undefined) ?
Data returned: inactive

Data request: What call does the record list for `C[C@H](C(=O)N[C@@H](Cc1ccc(-c2ccccc2)cc1)C(=O)NC1CC(C)(C)N(C)C(C)(C)C1)c1ccc(-c2ccccc2)c(F)c1` ?
Data returned: active

Data request: What call does the record list for `C[C@]12CC[C@H](O)CC1=CC[C@@H]1[C@@H]2CC[C@]2(C)C(c3cccnc3)=CC[C@@H]12` ?
Data returned: inactive

Data request: What call does the record list for `COC(=O)c1cc2oc(/C=N\NC(=O)c3cc4oc(C)c(C)c4[nH]3)cc2[nH]1` ?
Data returned: inactive

Data request: What call does the record list for `NS(=O)(=O)c1ccc(-n2ncc3c(N/N=C/c4ccccc4)ncnc32)cc1` ?
Data returned: inactive

Data request: What call does the record list for `FC(F)(F)c1cc(-c2nnc3n2N=C(N2CCCC2)CS3)cc(C(F)(F)F)c1` ?
Data returned: inactive

Data request: What call does the record list for `CCOC(=O)c1sc(NC(=O)COc2cccc(/C=C3\Cc4ccc(Cl)cc4C3=O)c2)nc1C` ?
Data returned: inactive

Data request: What call does the record list for `Cn1ccnc1C(=O)/C=C/c1ccc(C(=O)Nc2nc3ccccc3[nH]2)cc1` ?
Data returned: active

Data request: What call does the record list for `COc1cccc(/C=N\NC(=O)c2ccncc2)c1O` ?
Data returned: inactive

Data request: What call does the record list for `COc1ccc2c(c1)[n+](=O)c(C(=O)/C=C/c1cc(OC)c(OC)c(OC)c1)c(C)n2[O-]` ?
Data returned: inactive

Data request: What call does the record list for `O=[N+]([O-])c1cc([N+](=O)[O-])c(N2CCCC2)cc1NN=C(c1ccc(O)cc1)c1ccc(O)cc1` ?
Data returned: inactive

Data request: What call does the record list for `CCSc1nc(-c2cccs2)n2nc(-c3ccco3)cc2n1` ?
Data returned: inactive

Data request: What call does the record list for COc1cc(C2CC(C3C(=O)N(C)C(=O)N(C)C3=O)=NN2C=O)cc(OC)c1OC (centres undefined) ?
Data returned: inactive

Data request: What call does the record list for `CCN(CC)CCOCC[C@H]1CC[C@H]2[C@@H]3[C@H](C)Cc4cc(OS(N)(=O)=O)ccc4[C@H]3CC[C@]12C` ?
Data returned: active

Data request: What call does the record list for `Nc1ccccc1C#Cc1ccccc1C#Cc1ccc(OCCCCCCOc2ccc(C#Cc3ccccc3C#Cc3ccccc3N)cc2)cc1` ?
Data returned: inactive

Data request: What call does the record list for `CCCCCc1c(C)[nH]c(/C=C2\N=C(c3ccc[nH]3)C=C2Oc2ccccc2)c1C` ?
Data returned: active

Data request: What call does the record list for `CN1CCN(c2nc3scc(-c4ccccc4)c3c(=O)[nH]2)CC1` ?
Data returned: inactive

Data request: What call does the record list for `Cc1sc2nc(NCc3ccccc3)[nH]c(=O)c2c1C` ?
Data returned: inactive

Data request: What call does the record list for `CCOc1cc(/C=C/C(=O)C(C(=O)/C=C/c2ccc(OC(=O)CNc3nc4ccccc4[nH]3)c(OCC)c2)C(=O)CNc2nc3ccccc3[nH]2)ccc1OC(=O)CNc1nc2ccccc2[nH]1` ?
Data returned: active
